Listing: IC50 of selected compounds
SUBJECT OF TEST: JAK1 (Homo sapiens (Human), UniProt P23458)
Sequence (P23458 whole entry): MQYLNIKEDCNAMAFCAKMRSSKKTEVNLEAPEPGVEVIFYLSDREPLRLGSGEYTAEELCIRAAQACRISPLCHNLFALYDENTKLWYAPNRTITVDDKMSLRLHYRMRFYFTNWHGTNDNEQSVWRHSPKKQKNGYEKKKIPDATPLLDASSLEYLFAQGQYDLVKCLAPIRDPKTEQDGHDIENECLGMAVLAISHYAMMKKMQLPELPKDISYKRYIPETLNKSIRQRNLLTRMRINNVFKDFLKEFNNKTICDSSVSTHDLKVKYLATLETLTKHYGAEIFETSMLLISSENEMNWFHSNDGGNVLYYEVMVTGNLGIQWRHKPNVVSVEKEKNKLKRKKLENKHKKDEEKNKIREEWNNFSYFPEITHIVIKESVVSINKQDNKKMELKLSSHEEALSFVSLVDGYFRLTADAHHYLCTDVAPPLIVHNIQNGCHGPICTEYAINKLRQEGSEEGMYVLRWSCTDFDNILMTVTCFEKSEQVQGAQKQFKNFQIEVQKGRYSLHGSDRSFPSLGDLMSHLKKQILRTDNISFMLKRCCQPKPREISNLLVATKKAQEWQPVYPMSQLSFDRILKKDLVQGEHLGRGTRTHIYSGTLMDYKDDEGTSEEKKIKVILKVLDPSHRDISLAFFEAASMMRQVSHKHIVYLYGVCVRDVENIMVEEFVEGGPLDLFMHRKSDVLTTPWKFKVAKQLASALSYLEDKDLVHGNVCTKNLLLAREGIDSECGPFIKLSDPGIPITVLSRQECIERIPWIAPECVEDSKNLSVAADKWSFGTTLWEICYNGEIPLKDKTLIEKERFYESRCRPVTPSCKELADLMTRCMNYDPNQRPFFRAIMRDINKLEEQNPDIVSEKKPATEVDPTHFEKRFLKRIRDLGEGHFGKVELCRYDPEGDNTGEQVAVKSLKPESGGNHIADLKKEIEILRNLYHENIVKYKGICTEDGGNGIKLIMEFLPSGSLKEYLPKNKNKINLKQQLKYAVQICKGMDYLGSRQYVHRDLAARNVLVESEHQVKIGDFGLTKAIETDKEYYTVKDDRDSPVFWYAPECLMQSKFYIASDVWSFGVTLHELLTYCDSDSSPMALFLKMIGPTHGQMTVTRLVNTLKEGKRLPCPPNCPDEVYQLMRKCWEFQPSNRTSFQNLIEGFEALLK

The examples below pair each entry with its known result.
COMPOUND	SUBJECT OF TEST	PARAMETER	OBSERVED MEASUREMENT
CCOC(=O)c1cnc2[nH]ccc2c1N[C@@H]1CCC[C@@H](CCC#N)C1 (single isomer, unassigned; enantiomer 1) [Example 137]	JAK1 (Homo sapiens (Human), UniProt P23458)	IC50	≤ 10 nM
CCOC(=O)c1cnc2[nH]ccc2c1N[C@@H]1CCCN(C(=O)C(C)(C)C#N)C1 [Example 144]	JAK1 (Homo sapiens (Human), UniProt P23458)	IC50	10 to 100 nM
CCOC(=O)c1cnc2[nH]ccc2c1N[C@H]1CCCN(C(=O)CC#N)C1 [Example 143]	JAK1 (Homo sapiens (Human), UniProt P23458)	IC50	100 to 1000 nM
CCCOC(=O)c1cnc2[nH]ccc2c1N[C@H]1CN(C(=O)CC#N)CC[C@H]1C [Example 125]	JAK1 (Homo sapiens (Human), UniProt P23458)	IC50	≤ 10 nM

Any idea what IC50 was measured for CCOC(=O)c1cnc2[nH]ccc2c1NC1CCC(CCC#N)C1 (single isomer, unassigned; stereoisomer 1) [Example 154] ? 100 to 1000 nM

Now give it for COC(=O)c1cnc2[nH]ccc2c1N[C@@H]1CCC[C@H](CCC#N)C1 (racemic) [Example 152] too. ≤ 10 nM

Now give it for CCOC(=O)c1cnc2[nH]ccc2c1NC1CCC(CCC#N)C1 (mixture of isomers) [Example 153] too. ≤ 10 nM
